Data origin, for the record: PubChem BioAssay AID1159580

Kindly state normalized growth for each of the entries shown.
assay.procedure: chemical genetic growth profiling, strain panel (AID 1159580);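 further: tested at 20 µM; growth read once vehicle control cultures reached saturation at 30 °C; 1 = growth at the plate median or of vehicle wells; lower values mean less growth of the strain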
measurement.parameters: S. cerevisiae deletion strains, growth OD, locus YCL061C, strain MRC1 (second series), hits give low values
Among all 5,500 compounds or so, about 2,000 (36%) were called active. Not shown: some 18% with an inconclusive outcome. The list shows a part of the results.
Answer with a number only.

Tell me the measured normalized growth of NC(=O)CCC(N)C(=O)O (centres undefined) , please.
1

Entry NC(=O)CI : reported normalized growth = ?
0.98

Field request: normalized growth | item: Cc1ccc(O)c(N=Nc2ccccc2)n1
0.934

Requested field: normalized growth. Item: CN1CCc2cc(NC(=O)Nc3cccnc3)ccc21
0.996

Quick one: normalized growth of CC1Cc2cc3c(cc2C(c2ccc(N)cc2)=NN1)OCO3 (centres undefined) ?
0.991

Quick one: normalized growth of CCOC(=O)Nc1ccc(NCc2ccc(F)cc2)nc1N ?
1

Request the reported normalized growth associated with CC12C(=O)OC(=O)C1(C)C1CCC2O1 (centres undefined)
0.975

Entry C[C@H](Cc1ccc2c(c1)OC(C(=O)O)(C(=O)O)O2)NC[C@H](O)c1cccc(Cl)c1 has what normalized growth?
1.01

Returns the measured normalized growth for the input compound. Input: O=c1cc(O)cc(/C=C/c2ccc(O)c(O)c2)o1
0.988

normalized growth for COc1cc2c(cc1C(F)(F)F)N(C(=O)Nc1cc(F)cc(-c3cccnc3)c1)CC2 ?
1

Which normalized growth is listed for NCCCCCCCCCCN ?
1.01

Which normalized growth value is on record for CCn1cc(C(=O)O)c(=O)c2cc3c(cc21)OCO3 ?
0.991

Which value of normalized growth has been reported for COCC(=O)O[C@]1(CCN(C)CCCc2nc3ccccc3[nH]2)CCc2cc(F)ccc2[C@@H]1C(C)C in the records?
1

What does the data say about its normalized growth? Entry: CCn1cc(C(=O)O)c(=O)c2ccc(C)nc21
0.961

----------
Please provide measured normalized growth for the entries that follow.
assay.procedure: chemical genetic growth profiling, strain panel (AID 1159580);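 further: tested at 20 µM; growth read once vehicle control cultures reached saturation at 30 °C; 1 = growth at the plate median or of vehicle wells; lower values mean less growth of the strain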
measurement.parameters: S. cerevisiae deletion strains, growth OD, locus YCR088W, strain abp1, hits give low values
Among all 5,500 compounds or so, about 2,000 (36%) were called active. About 18% were inconclusive and are not listed. The list shows a part of the results.
Note: the reply should be a number with no unit written.

// normalized growth lookup, key: CC(=O)O[C@H]1CC[C@@]2(C)C(=CCC3C2CC[C@@]2(C)C3CC[C@@H]2C(C)CCCC(C)C)C1 (stereo partly specified)
0.988

For the compound CC1=C(/C=C/C(C)=C/C=C/C(C)=C/C=C/C=C(C)/C=C/C=C(C)/C=C/C2=C(C)CCCC2(C)C)C(C)(C)CCC1 , what normalized growth is on record?
0.995

// normalized growth lookup, key: COc1cc2c(cc1O)CC1c3c(cc(O)c(OC)c3-2)CCN1C (stereo unspecified)
1.01

Please report the recorded normalized growth for CC1=C(/C=C/C(C)=C/C=C/C(C)=C\C(=O)O)C(C)(C)CCC1 .
0.995

Can you look up the measured normalized growth of CS(=O)(=O)OCCCCOS(C)(=O)=O for me?
1.02

Requested field: normalized growth. Item: CC[C@@H]1[C@@H](O)N2C3C[C@H]1C1C(O)[C@]4(C[C@@H]12)c1ccccc1N(C)[C@@H]34 (stereo partly specified)
1.04

Reported normalized growth for COc1ccc(/C=C/c2cc(O)cc(O)c2)cc1 : what is it?
1

# get_value(readout='normalized growth', item= CC1(C)CC2C1CCC1(C)OC1CCC2(C)O (stereo unspecified) )
1.04

Which measured normalized growth value corresponds to O=C(NC(=O)c1c(F)cccc1F)Nc1cc(Cl)c(OC(F)(F)C(F)C(F)(F)F)cc1Cl (stereo unspecified) ?
0.988

// query normalized growth value for entry COc1ccc2c(c1O)-c1c(OC)c(OC)cc3c1[C@H](C2)N(C)CC3
0.975

Value lookup for normalized growth; key = CC12CCC3C(CC=C4CC(O)CCC43C)C1CCC2=O (stereo unspecified)
1.02

Please look up its normalized growth: CC12CCCC(O)(C1)C1CC(C)(C)C1CC2 (stereo unspecified)
0.993

Entry CC1=C(/C=C/C(C)=C/C=C/C(C)=C/CO)C(C)(C)CCC1 : reported normalized growth = ?
1.03

Looking for the measured normalized growth of CCCN(CCC)C(=O)C(CCC(=O)O)NC(=O)c1ccccc1 (stereo unspecified) , can you help?
0.98

Look up normalized growth for this compound: COC(=O)[C@H]1[C@H]2C[C@@H]3c4[nH]c5cc(OC)ccc5c4CCN3C[C@H]2C[C@@H](OC(=O)c2cc(OC)c(OC)c(OC)c2)[C@@H]1OC
0.999

Any idea what its normalized growth is? The compound is Cc1cccc(CN2CCN(C(c3ccccc3)c3ccc(Cl)cc3)CC2)c1 (stereo unspecified)
0.951

Given CN1CCc2cccc3c2C1Cc1ccc(O)c(O)c1-3 (stereo unspecified) , state its recorded normalized growth.
0.986

Quick one: normalized growth for CCOP(=S)(OCC)Oc1ccc2c(C)c(Cl)c(=O)oc2c1 ?
0.964

// normalized growth lookup, key: CC1(C)CC2C1CCC1(C)OC2(C)CCC1O (stereo unspecified)
1.02

Please give the measured normalized growth for this compound: COP(=S)(OC)Oc1ccc(SC)c(C)c1
1

Return reported normalized growth; argument: CC1=C(/C=C/C(C)=C/C=C/C(C)=C/C(=O)O)C(C)(C)CCC1
0.993
